System: NCI-H1563
Assay: relative viability (nuclei count vs DMSO), 5 days (fraction); higher = more cells survive
Conditions: first compound 0.08 µM
Simple rule here: relative viability less than 0.8 is MET, otherwise NOT MET.

# compound, label
measured = [
    ("O=c1[nH]c2ccccc2n1C1CCN(CCCC(c2ccc(F)cc2)c2ccc(F)cc2)CC1 [Pimozide] + CS(=O)(=O)CCNCc1ccc(-c2ccc3ncnc(Nc4ccc(OCc5cccc(F)c5)c(Cl)c4)c3c2)o1 [Lapatinib] (partner 2 µM)", "NOT MET"),
    ("O=c1[nH]c2ccccc2n1C1CCN(CCCC(c2ccc(F)cc2)c2ccc(F)cc2)CC1 [Pimozide] + CS(=O)(=O)N1CCN(Cc2cc3nc(-c4cccc5[nH]ncc45)nc(N4CCOCC4)c3s2)CC1 [Pictilisib] (partner 1 µM)", "MET"),
    ("Cc1cnc(-c2cnc(NCCNc3ccc(C#N)cn3)nc2-c2ccc(Cl)cc2Cl)[nH]1 + Cc1nc(Nc2ncc(C(=O)Nc3c(C)cccc3Cl)s2)cc(N2CCN(CCO)CC2)n1 [Dasatinib] (partner 0.075 µM)", "MET"),
    ("O=c1[nH]c2ccccc2n1C1CCN(CCCC(c2ccc(F)cc2)c2ccc(F)cc2)CC1 [Pimozide] + CC(C)C[C@H](NC(=O)[C@H](Cc1ccccc1)NC(=O)c1cnccn1)B(O)O [Bortezomib] (partner 0.002 µM)", "NOT MET"),
    ("Cc1cnc(-c2cnc(NCCNc3ccc(C#N)cn3)nc2-c2ccc(Cl)cc2Cl)[nH]1 + Nc1nc2[nH]cc(CCc3ccc(C(=O)N[C@@H](CCC(=O)O)C(=O)O)cc3)c2c(=O)[nH]1 [Pemetrexed] (partner 0.2 µM)", "MET"),
    ("Cc1cnc(-c2cnc(NCCNc3ccc(C#N)cn3)nc2-c2ccc(Cl)cc2Cl)[nH]1 + CC(C)C[C@H](NC(=O)[C@H](Cc1ccccc1)NC(=O)c1cnccn1)B(O)O [Bortezomib] (partner 0.002 µM)", "NOT MET"),
]
